molecular target: human polymorphonuclear leukocyte elastase (human granulocyte elastase) (Homo sapiens, UniProt P08246); construct: Crude extract of human polymorphonuclear leukocytes (PMN) containing elastase activity; endogenous in cells; host or cells: human polymorphonuclear leukocytes (crude extract); assay: Enzyme assay for inhibition of human polymorphonuclear leukocyte elastase via hydrolysis of Boc-AAPAN or Boc-AAPVN; assay type: biochemical; conditions: crude extract of human PMN; 0.2 mM Boc-AAPAN or Boc-AAPVN; 0.05M TES buffer pH 7.5; read-out: kobs /I, second order rate constant for inactivation of the enzyme
Sequence (P08246 30-267): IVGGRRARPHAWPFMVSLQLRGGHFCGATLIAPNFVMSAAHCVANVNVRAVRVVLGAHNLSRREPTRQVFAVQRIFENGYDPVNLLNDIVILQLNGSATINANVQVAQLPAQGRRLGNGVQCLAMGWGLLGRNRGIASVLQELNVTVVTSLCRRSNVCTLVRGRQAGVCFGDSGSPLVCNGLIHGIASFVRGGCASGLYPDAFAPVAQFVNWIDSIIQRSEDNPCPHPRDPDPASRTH
The reader will find reported kinact/KI values listed item by item below.
The answer is to be given in M⁻¹ s⁻¹; state only the numeric part.

For orientation, consider the following solved cases.
1) C=CCP(=O)(Cc1ccc(O[C@@H]2N(C(=O)N[C@H](CCC)c3ccc(C)cc3)C(=O)C2(CC)CC)cc1)OCC (some centres unmarked) [Example 3]; 1.3e+06
2) C=CCP(=O)(O)Cc1ccc(O[C@@H]2N(C(=O)N[C@H](CCC)c3ccc(C)cc3)C(=O)C2(CC)CC)cc1 [Example 4]; 740000
3) CCC[C@@H](NC(=O)N1C(=O)C(CC)(CC)[C@@H]1Oc1ccc(CP(=O)(O)c2ccccc2)cc1)c1ccc(C)cc1 [Example 2]; 1.2e+06
4) CCC[C@@H](NC(=O)N1C(=O)C(CC)(CC)[C@@H]1Oc1ccc(CP(=O)(O)CCC)cc1)c1ccc(C)cc1 [Example 8]; 910000

Now for another entry.
Record request: kinact/KI value, item CCC[C@@H](NC(=O)N1C(=O)C(CC)(CC)[C@@H]1Oc1ccc(CP(C)(=O)O)cc1)c1ccc(C)cc1 [Example 6] 420000

Values from patent US5104862A
